# protocol_details: clinical
# conditions: human, in vivo, AUC
readout_kind: AUC (ng·h/mL)
Just the number in ng·h/mL, nothing appended.

In: // AUC lookup, key: CC(=O)O[C@@]12CO[C@@H]1C[C@H](O)[C@@]1(C)C(=O)[C@H](O)C3=C(C)[C@@H](OC(=O)[C@H](O)[C@@H](NC(=O)OC(C)(C)C)c4ccccc4)C[C@@](O)([C@@H](OC(=O)c4ccccc4)[C@H]21)C3(C)C [Docetaxel]
Out: 3770
